assay: Partition coefficient determination (1-octanol/water); format: physicochemical; settings: pH: 2.2
readout: logP
Please give only the number in your answer, with no unit.

Looking for the measured logP of C[N+]1(CC2CC2)CC[C@]23c4c5ccc(O)c4O[C@H]2[C@](O)(C(=O)O)C[C@@]3(O)[C@H]1C5 (stereo partly shown) , can you help?
-2.15

* * *

experiment: Administration in GI-physiology altered dogs (plasma pharmacokinetics); type: in vivo; conditions: male, beagle, dog, po, 50 mg, Dog 1, PO, single 50 mg capsule
readout: AUC(0-inf) (ng·h/mL)
State the answer as a number, implicitly in ng·h/mL.

Return reported AUC(0-inf); argument: C[N+]1(CC2CC2)CC[C@]23c4c5ccc(O)c4O[C@H]2[C@](O)(C(=O)O)C[C@@]3(O)[C@H]1C5 (stereo partly shown)
4690

* * *

experiment: Administration in GI-physiology altered dogs (plasma pharmacokinetics); format: in vivo; conditions: male, beagle, dog, po, 50 mg, Dog 2, PO, single 50 mg capsule
readout: Cmax (µg/mL)
Supply the numeric figure in µg/mL, leaving out any unit text.

I am curious: what Cmax value has been reported for C[N+]1(CC2CC2)CC[C@]23c4c5ccc(O)c4O[C@H]2[C@](O)(C(=O)O)C[C@@]3(O)[C@H]1C5 (stereo partly shown) ?
1.67

* * *

assay: Administration in GI-physiology altered dogs (plasma pharmacokinetics); format: in vivo; conditions: male, beagle, dog, po, 50 mg, Median, N 3 dogs, single 50 mg capsule
readout: AUC(0-t)
Report field: quantity (unit follows the number).

Entry C[N+]1(CC2CC2)CC[C@]23c4c5ccc(O)c4O[C@H]2[C@](O)(C(=O)O)C[C@@]3(O)[C@H]1C5 (stereo partly shown) [Compound Ia] : reported AUC(0-t) = ?
6210 ng·h/mL

* * *

assay: Administration in GI-physiology altered dogs (plasma pharmacokinetics); assay type: in vivo; conditions: male, beagle, dog, po, 50 mg, Dog 3, PO, single 50 mg capsule
readout: AUC(0-t) (ng·h/mL)
Output spec: scalar in ng·h/mL, unitless text.

Return reported AUC(0-t); argument: C[N+]1(CC2CC2)CC[C@]23c4c5ccc(O)c4O[C@H]2[C@](O)(C(=O)O)C[C@@]3(O)[C@H]1C5 (stereo partly shown)
6210

* * *

test: Administration in GI-physiology altered dogs (plasma pharmacokinetics); type: in vivo; settings: male, beagle, dog, po, 50 mg, Dog 2, PO, single 50 mg capsule
readout: AUC(0-inf) (ng·h/mL)
Output spec: scalar in ng·h/mL, unitless text.

I'd like to know its AUC(0-inf). The compound in question is C[N+]1(CC2CC2)CC[C@]23c4c5ccc(O)c4O[C@H]2[C@](O)(C(=O)O)C[C@@]3(O)[C@H]1C5 (stereo partly shown) [Compound Ia]
7740

* * *

test: Administration in GI-physiology altered dogs (plasma pharmacokinetics); format: in vivo; settings: male, beagle, dog, po, 50 mg, Median, N 3 dogs, single 50 mg capsule
readout: Cmax (ng/mL)
Numbers only; they are read as ng/mL.

What value of Cmax has been reported for the following compound? C[N+]1(CC2CC2)CC[C@]23c4c5ccc(O)c4O[C@H]2[C@](O)(C(=O)O)C[C@@]3(O)[C@H]1C5 (stereo partly shown)
1580

* * *

test: Administration in GI-physiology altered dogs (plasma pharmacokinetics); type: in vivo; details: male, beagle, dog, po, 50 mg, Dog 1, PO, single 50 mg capsule
readout: AUC(0-t) (ng·h/mL)
Report only the number, with the unit ng·h/mL understood.

Consider the compound shown here: C[N+]1(CC2CC2)CC[C@]23c4c5ccc(O)c4O[C@H]2[C@](O)(C(=O)O)C[C@@]3(O)[C@H]1C5 (stereo partly shown) What is its recorded AUC(0-t)?
4630

* * *

experiment: Administration in GI-physiology altered dogs (plasma pharmacokinetics); format: in vivo; details: male, beagle, dog, po, 50 mg, Dog 2, PO, single 50 mg capsule
readout: AUC(0-t) (ng·h/mL)
The response must be a number in ng·h/mL with no trailing unit.

Given the molecule C[N+]1(CC2CC2)CC[C@]23c4c5ccc(O)c4O[C@H]2[C@](O)(C(=O)O)C[C@@]3(O)[C@H]1C5 (stereo partly shown) [Compound Ia] , what is its reported AUC(0-t)?
7720

* * *

Assay: Administration in GI-physiology altered dogs (plasma pharmacokinetics)
Assay type: in vivo
Conditions: male, beagle, dog, po, 50 mg, Dog 3, PO, single 50 mg capsule
Description: A 50 mg capsule formulation of Compound Ia was screened in gastrointestinal (GI) physiology regulated male beagle dogs. […] Bioanalytical results were received and a preliminary PK assessment was performed. […] The following pharmacokinetic parameters were determined for each dog, and descriptive statistics were calculated: AUC, Cmax, and tmax.
readout: half-life (h)
Report the figure in h without appending any unit label.

# half-life lookup, item C[N+]1(CC2CC2)CC[C@]23c4c5ccc(O)c4O[C@H]2[C@](O)(C(=O)O)C[C@@]3(O)[C@H]1C5 (stereo partly shown) [Compound Ia]
1.1

* * *

assay: Administration in GI-physiology altered dogs (plasma pharmacokinetics); format: in vivo; settings: male, beagle, dog, po, 50 mg, Mean, N 3 dogs, single 50 mg capsule
readout: half-life (h)
Report the figure in h without appending any unit label.

Give the measured half-life of C[N+]1(CC2CC2)CC[C@]23c4c5ccc(O)c4O[C@H]2[C@](O)(C(=O)O)C[C@@]3(O)[C@H]1C5 (stereo partly shown) .
2.6

* * *

assay: Administration in GI-physiology altered dogs (plasma pharmacokinetics); format: in vivo; conditions: male, beagle, dog, po, 50 mg, Dog 1, PO, single 50 mg capsule
readout: half-life (h)
Field format: number, assumed h, no unit text.

Record request: half-life value, item C[N+]1(CC2CC2)CC[C@]23c4c5ccc(O)c4O[C@H]2[C@](O)(C(=O)O)C[C@@]3(O)[C@H]1C5 (stereo partly shown)
3.9

* * *

assay: Administration in GI-physiology altered dogs (plasma pharmacokinetics); format: in vivo; settings: male, beagle, dog, po, 50 mg, Mean, N 3 dogs, single 50 mg capsule
readout: AUC(0-t) (ng·h/mL)
Numbers only here, please. The scale is ng·h/mL.

Please report the recorded AUC(0-t) for C[N+]1(CC2CC2)CC[C@]23c4c5ccc(O)c4O[C@H]2[C@](O)(C(=O)O)C[C@@]3(O)[C@H]1C5 (stereo partly shown) [Compound Ia] .
6190

* * *

experiment: Administration in GI-physiology altered dogs (plasma pharmacokinetics); format: in vivo; conditions: male, beagle, dog, po, 50 mg, Median, N 3 dogs, single 50 mg capsule
readout: AUC(0-inf) (ng·h/mL)
Number in ng·h/mL, nothing else.

What value of AUC(0-inf) has been reported for the following compound? C[N+]1(CC2CC2)CC[C@]23c4c5ccc(O)c4O[C@H]2[C@](O)(C(=O)O)C[C@@]3(O)[C@H]1C5 (stereo partly shown)
6220

* * *

assay: Administration in GI-physiology altered dogs (plasma pharmacokinetics); format: in vivo; settings: male, beagle, dog, po, 50 mg, Dog 1, PO, single 50 mg capsule
readout: Cmax (ng/mL)
Report the value in ng/mL with no unit label.

Give the measured Cmax of C[N+]1(CC2CC2)CC[C@]23c4c5ccc(O)c4O[C@H]2[C@](O)(C(=O)O)C[C@@]3(O)[C@H]1C5 (stereo partly shown) [Compound Ia] .
825

* * *

Test: Administration in GI-physiology altered dogs (plasma pharmacokinetics)
Format: in vivo
Settings: male, beagle, dog, po, 50 mg, Mean, N 3 dogs, single 50 mg capsule
Description: A 50 mg capsule formulation of Compound Ia was screened in gastrointestinal (GI) physiology regulated male beagle dogs. […] Bioanalytical results were received and a preliminary PK assessment was performed. […] The following pharmacokinetic parameters were determined for each dog, and descriptive statistics were calculated: AUC, Cmax, and tmax.
readout: Tmax (h)
Numeric answer only, unit h assumed.

Consider the compound C[N+]1(CC2CC2)CC[C@]23c4c5ccc(O)c4O[C@H]2[C@](O)(C(=O)O)C[C@@]3(O)[C@H]1C5 (stereo partly shown) and give its measured Tmax.
2

* * *

test: Administration in GI-physiology altered dogs (plasma pharmacokinetics); assay type: in vivo; conditions: male, beagle, dog, po, 50 mg, Dog 1, PO, single 50 mg capsule
readout: Tmax (h)
Value expressed in h; do not type the unit.

I'd like to know its Tmax. The compound in question is C[N+]1(CC2CC2)CC[C@]23c4c5ccc(O)c4O[C@H]2[C@](O)(C(=O)O)C[C@@]3(O)[C@H]1C5 (stereo partly shown) [Compound Ia]
2

* * *

biological target: human recombinant Mu opioid receptors (Homo sapiens); experiment: cell-based
Sequence (P35372 whole entry): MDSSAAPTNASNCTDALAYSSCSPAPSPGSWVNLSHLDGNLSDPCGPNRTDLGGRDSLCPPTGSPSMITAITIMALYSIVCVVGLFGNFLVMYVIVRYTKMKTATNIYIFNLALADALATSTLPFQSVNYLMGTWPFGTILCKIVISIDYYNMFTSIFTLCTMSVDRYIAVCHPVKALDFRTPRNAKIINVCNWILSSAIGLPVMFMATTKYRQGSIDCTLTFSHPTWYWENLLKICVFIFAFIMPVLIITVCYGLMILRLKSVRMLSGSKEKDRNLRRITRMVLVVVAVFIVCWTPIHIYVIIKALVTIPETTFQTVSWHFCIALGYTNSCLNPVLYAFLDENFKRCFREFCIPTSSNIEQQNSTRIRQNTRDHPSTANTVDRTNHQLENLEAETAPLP
readout: IC50 (nM)
I only need the number, in nM, no unit after it.

Look up IC50 for this compound: C[N+]1(CC2CC2)CC[C@]23c4c5ccc(O)c4O[C@H]2[C@](O)(C(=O)O)C[C@@]3(O)[C@H]1C5 (stereo partly shown)
170

* * *

experiment: Administration in GI-physiology altered dogs (plasma pharmacokinetics); format: in vivo; conditions: male, beagle, dog, po, 50 mg, Dog 3, PO, single 50 mg capsule
readout: Cmax
Number first, unit second: that is the form wanted.

Endpoint output: Cmax of C[N+]1(CC2CC2)CC[C@]23c4c5ccc(O)c4O[C@H]2[C@](O)(C(=O)O)C[C@@]3(O)[C@H]1C5 (stereo partly shown) . Value?
1580 ng/mL

Hey, just so you know, these numbers are from patent US7501434B2.
